All values here come from paper PMC4128814.

The following molecules are listed with their measured pIC50 values.
Molecular target: 15-LOX-2 (Homo sapiens, UniProt O15296)
Construct: His6 (N); made in house
Sequence (O15296 whole entry): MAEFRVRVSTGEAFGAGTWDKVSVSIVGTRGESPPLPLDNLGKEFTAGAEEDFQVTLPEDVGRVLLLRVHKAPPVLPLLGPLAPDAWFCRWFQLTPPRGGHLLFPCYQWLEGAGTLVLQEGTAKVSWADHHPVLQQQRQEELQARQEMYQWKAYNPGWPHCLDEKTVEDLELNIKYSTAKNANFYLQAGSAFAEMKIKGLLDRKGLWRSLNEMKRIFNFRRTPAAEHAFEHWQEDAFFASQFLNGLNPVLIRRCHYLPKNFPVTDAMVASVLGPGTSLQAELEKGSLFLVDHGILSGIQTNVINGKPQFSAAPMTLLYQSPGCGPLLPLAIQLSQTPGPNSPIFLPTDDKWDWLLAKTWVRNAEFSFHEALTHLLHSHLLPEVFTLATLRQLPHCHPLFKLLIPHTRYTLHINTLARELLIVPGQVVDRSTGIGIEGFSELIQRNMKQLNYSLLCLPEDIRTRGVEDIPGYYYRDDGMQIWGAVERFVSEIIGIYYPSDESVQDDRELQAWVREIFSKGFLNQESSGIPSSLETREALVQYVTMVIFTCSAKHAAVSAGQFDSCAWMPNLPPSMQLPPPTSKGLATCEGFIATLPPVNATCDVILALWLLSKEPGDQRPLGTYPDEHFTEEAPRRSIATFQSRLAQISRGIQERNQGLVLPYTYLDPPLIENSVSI
Assay: Lipoxygenase UV-Vis assay, 15-LOX-2
Format: biochemical
Conditions: read-out: 15-LOX-2 IC50
pIC50: −log10 of the molar value.

// worked examples, pIC50 included
| Substance smiles | pIC50 |
| --- | --- |
| Clc1ccc(CSc2ncn(-c3ccccc3)n2)cc1 | 6.13 |
| O=[N+]([O-])c1cccc(-c2nnc(C34CC5CC(CC(C5)C3)C4)o2)c1 | < 4.00 |
| Clc1ccc(-c2nnc(C3CC3)o2)cc1 | < 4.00 |
| CCCc1nnc(-c2ccc(OC)cc2)o1 | < 4.00 |
| Clc1ccc(-c2nnc(CCc3ccccc3)o2)c(Cl)c1 | < 4.00 |

For the next question, use this molecule.
Query: Supply pIC50 value. Item: Clc1cccc(CSc2ncn(-c3ccccc3)n2)c1
Response: 5.27
